molecular target: Xanthine dehydrogenase/oxidase (Bos taurus); experiment: Ratio of kcat to km for bovine xanthine oxidase at 50 uM; settings: cattle
Sequence (P80457 whole entry): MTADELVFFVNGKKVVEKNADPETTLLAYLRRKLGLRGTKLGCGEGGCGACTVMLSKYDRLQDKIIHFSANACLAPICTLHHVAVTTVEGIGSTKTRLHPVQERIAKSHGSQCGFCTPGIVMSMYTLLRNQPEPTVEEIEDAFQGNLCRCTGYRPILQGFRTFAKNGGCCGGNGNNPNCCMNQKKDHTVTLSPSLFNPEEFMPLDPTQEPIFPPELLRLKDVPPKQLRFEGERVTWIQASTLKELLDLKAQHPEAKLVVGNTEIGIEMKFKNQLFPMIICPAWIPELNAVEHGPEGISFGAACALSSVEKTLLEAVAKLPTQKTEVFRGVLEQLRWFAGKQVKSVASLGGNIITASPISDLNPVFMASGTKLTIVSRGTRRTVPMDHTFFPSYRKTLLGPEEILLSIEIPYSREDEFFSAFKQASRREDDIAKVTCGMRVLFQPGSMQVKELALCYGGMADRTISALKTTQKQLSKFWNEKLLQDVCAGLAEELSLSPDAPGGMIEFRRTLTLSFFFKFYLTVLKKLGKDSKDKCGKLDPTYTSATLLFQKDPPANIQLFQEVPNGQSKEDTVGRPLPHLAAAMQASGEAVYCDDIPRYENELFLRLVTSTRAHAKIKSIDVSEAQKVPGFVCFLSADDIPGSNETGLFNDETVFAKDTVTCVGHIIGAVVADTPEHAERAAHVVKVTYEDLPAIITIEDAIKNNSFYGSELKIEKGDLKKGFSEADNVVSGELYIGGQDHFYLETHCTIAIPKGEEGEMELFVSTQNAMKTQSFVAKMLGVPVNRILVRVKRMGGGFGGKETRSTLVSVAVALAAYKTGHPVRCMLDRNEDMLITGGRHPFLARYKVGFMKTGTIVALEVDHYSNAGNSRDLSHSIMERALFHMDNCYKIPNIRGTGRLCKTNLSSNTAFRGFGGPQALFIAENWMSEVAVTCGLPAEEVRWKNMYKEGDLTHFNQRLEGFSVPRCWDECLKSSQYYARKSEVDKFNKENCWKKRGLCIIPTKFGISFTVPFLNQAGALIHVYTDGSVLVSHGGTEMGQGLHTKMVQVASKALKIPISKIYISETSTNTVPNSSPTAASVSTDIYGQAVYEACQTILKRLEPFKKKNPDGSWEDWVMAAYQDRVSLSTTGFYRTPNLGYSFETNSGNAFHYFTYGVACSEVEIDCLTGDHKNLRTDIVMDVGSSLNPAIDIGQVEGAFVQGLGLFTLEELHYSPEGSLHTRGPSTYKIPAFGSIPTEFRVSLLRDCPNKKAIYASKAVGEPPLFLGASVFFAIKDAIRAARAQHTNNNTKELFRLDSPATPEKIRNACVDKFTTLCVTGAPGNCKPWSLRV
observed property: Kcat/Km (M⁻¹ s⁻¹)
Give bare numbers, in M⁻¹ s⁻¹.

Sample records with Kcat/Km:
COc1cc(/C=C/C(=O)CC(=O)/C=C/c2ccc(O)c(OC)c2)ccc1O ... 5.1e+06
COc1cc(C2Oc3cc([C@H]4Oc5cc(O)cc(O)c5C(=O)[C@@H]4O)ccc3OC2CO)ccc1O (stereo not given in full) ... 110000
O=c1c(O)c(-c2ccc(O)c(O)c2)oc2cc(O)cc(O)c12 ... 20000
Oc1ncnc2[nH]ncc12 ... 110000

Next compound, please.
q: Using Xanthine dehydrogenase/oxidase (Bos taurus) as the test system, report measured Kcat/Km of O=c1cc(-c2ccc(O)c(O)c2)oc2cc(O)cc(O)c12 .
a: 20000
